- protocol.description: P-glycoprotein substrates identified in KB-8-5-11 adenocarcinoma cell line, qHTS therapeutic library screen (AID 1346987); note: nearly all actives have a fitted effect of over 65% in size
- experimental.setup: KB-8-5-11 (P-gp overexpressing) viability, CellTiter-Glo, 72 h; series mostly up to 44.5 µM
Records with an inconclusive call do not appear. Active and inactive are the calls of the source. Calls come from the whole dose curve; as a rule, active = well fitted inhibition curve with a large enough effect; inconclusive = small, poorly fitted or top-dose-only effect; inactive = flat fitted curve, though single readings scatter.
Entry note: the call must match one of active, inactive

# fetch the recorded call for O=S(=O)(c1cccc2cnccc12)N1CCCNCC1 here inactive

Check COc1ncnc(NS(=O)(=O)c2ccc(N)cc2)c1OC too. inactive

Check COc1cc2nc(N3CCCN(C)CC3)nc(NC3CCN(Cc4ccccc4)CC3)c2cc1OC too. active

Check CCOc1cc(N)c(Cl)cc1C(=O)NCC1CN(Cc2ccc(F)cc2)CCO1 (stereo not drawn) too. inactive

Check O=C(N[C@H](CO)[C@H](O)c1ccc([N+](=O)[O-])cc1)C(Cl)Cl too. inactive

Check CC1=NN(c2ccccc2)C(=O)C1 too. inactive

Check Clc1ccccc1CN1CCc2sccc2C1 too. inactive

Check O=C(O)c1cn(C2CC2)c2cc(N3CCNCC3)c(F)cc2c1=O too. inactive

Check CC(C)(C)NC(=O)[C@H]1CC[C@H]2[C@@H]3CC[C@H]4NC(=O)C=C[C@]4(C)[C@H]3CC[C@]12C too. inactive

Check NC(=O)c1cccc(N)c1 too. inactive

Check O=NN(CCCl)C(=O)NC1CCCCC1 too. inactive

Check COc1cc2c(Nc3ccc(Br)cc3F)ncnc2cc1OCC1CCN(C)CC1 too. inactive

Check CN(Cc1cc(Br)cc(Br)c1N)C1CCCCC1 too. inactive

Check CCn1cc(C(=O)O)c(=O)c2cc(F)c(N3CCNCC3)cc21 too. inactive

Check N=C(N)c1ccc(OCCCCCOc2ccc(C(=N)N)cc2)cc1 too. inactive

Check O=P(O)(O)C(O)(Cc1cccnc1)P(=O)(O)O too. inactive

Check NC1(c2ccc(-c3nc4ccn5c(=O)[nH]nc5c4cc3-c3ccccc3)cc2)CCC1 too. active

Check CC[C@H](NC(C)C)[C@H](O)c1ccc(O)c2[nH]c(=O)ccc12 too. inactive

Check C[C@@H]1C[C@H]2[C@@H]3CCC4=CC(=O)C=C[C@]4(C)[C@@]3(Cl)[C@@H](O)C[C@]2(C)[C@@]1(OC(=O)c1ccco1)C(=O)CCl too. inactive

Check CC(C(=O)O)c1ccc2c(c1)CC(=O)c1ccccc1S2 (stereo not drawn) too. inactive

Check O=C(NCC1CN(c2ccc(N3CCOCC3=O)cc2)C(=O)O1)c1ccc(Cl)s1 (stereo not drawn) too. inactive

Check O=c1cc(O)c(Cl)c[nH]1 too. inactive

Check COCCCOc1cc(C[C@@H](C[C@H](N)[C@@H](O)C[C@H](C(=O)NCC(C)(C)C(N)=O)C(C)C)C(C)C)ccc1OC too. inactive
